Could you please report measured log10 EC50 for the items listed next?
- ASSAY_TARGET: human CYP11B2 (Homo sapiens)
- Sequence (P19099 25-503): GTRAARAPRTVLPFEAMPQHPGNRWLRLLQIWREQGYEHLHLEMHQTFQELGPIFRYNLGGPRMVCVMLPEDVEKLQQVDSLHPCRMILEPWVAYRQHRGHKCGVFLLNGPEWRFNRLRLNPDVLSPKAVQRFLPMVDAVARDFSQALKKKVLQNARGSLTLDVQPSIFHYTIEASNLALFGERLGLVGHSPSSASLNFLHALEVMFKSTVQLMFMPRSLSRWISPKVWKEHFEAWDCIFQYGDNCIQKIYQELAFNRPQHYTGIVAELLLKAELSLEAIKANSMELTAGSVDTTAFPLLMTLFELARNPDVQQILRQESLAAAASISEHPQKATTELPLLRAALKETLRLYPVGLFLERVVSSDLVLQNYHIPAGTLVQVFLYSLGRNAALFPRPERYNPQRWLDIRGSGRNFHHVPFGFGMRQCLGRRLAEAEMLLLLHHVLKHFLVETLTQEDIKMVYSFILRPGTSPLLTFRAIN
- TEST_NAME: G-402 cellular enzyme assay, human CYP11B2 (aldosterone release, HTRF)
- CONDITION_DESCRIPTION: G-402 cells expressing human CYP11B2; 1 μM Deoxycorticosterone
Structures can show the parent of a compound that is named as a salt.
Annotation: log10 of EC50, nM basis.

Sample Cc1noc(C)c1C(=O)NCCOc1cncc(-c2cc3c(cc2F)N(C)C(=O)CC3)c1 [Example 267] , system: human CYP11B2 (Homo sapiens). Its log10 EC50 is 0.00

Sample Cc1noc(C)c1C(=O)NC1(c2cncc(-c3ccc4c(c3)CCC(=O)N4C)c2)CC1 [Example 113] , system: human CYP11B2 (Homo sapiens). Its log10 EC50 is 1.88

Sample CN1C(=O)CCc2cc(-c3cncc(CNC(=O)c4cc(Cl)nnc4Cl)c3)c(F)cc21 [Example 132] , system: human CYP11B2 (Homo sapiens). Its log10 EC50 is 1.46

Sample CN1C(=O)CCc2cc(-c3cncc(C4(N(C)C(=O)c5ncccc5Cl)CC4)c3)ccc21 [Example 201] , system: human CYP11B2 (Homo sapiens). Its log10 EC50 is 1.38

Sample CCS(=O)(=O)N(C)Cc1cncc(-c2cc3c(cc2F)N(C)C(=O)CC3)c1 [Example 211] , system: human CYP11B2 (Homo sapiens). Its log10 EC50 is 0.70

Sample CN1C(=O)CCc2cc(-c3cncc(OCCNC(=O)c4cnn(C)c4)c3)ccc21 [Example 103] , system: human CYP11B2 (Homo sapiens). Its log10 EC50 is 1.18

Sample CN1C(=O)CCc2cc(-c3cncc(O[C@H]4CC[C@H](N)CC4)c3)ccc21 [Example 71, hydrochloride] , system: human CYP11B2 (Homo sapiens). Its log10 EC50 is 1.91

Sample CCS(=O)(=O)NC(C)c1cncc(-c2ccc3c(c2)CCC(=O)N3C)c1 (single isomer, unassigned) [Example 174] , system: human CYP11B2 (Homo sapiens). Its log10 EC50 is 1.52

Sample CCS(=O)(=O)N(Cc1cncc(-c2ccc3c(c2)CCC(=O)N3C)c1)C(C)C [Example 184] , system: human CYP11B2 (Homo sapiens). Its log10 EC50 is 2.36

Sample Cc1ocnc1C(=O)NCc1cncc(-c2ccc3c(c2)CCC(=O)N3C)c1 [Example 112] , system: human CYP11B2 (Homo sapiens). Its log10 EC50 is 0.78

Sample CCOCCN(Cc1cncc(-c2ccc3c(c2)CCC(=O)N3C)c1)S(=O)(=O)CC [Example 185] , system: human CYP11B2 (Homo sapiens). Its log10 EC50 is 2.80

Sample CC(N)c1cncc(-c2ccc3c(c2)CCC(=O)N3C)c1Cl (single isomer, unassigned) [Example 250, hydrochloride] , system: human CYP11B2 (Homo sapiens). Its log10 EC50 is 1.54

Sample CC(C)CC(=O)NCc1cncc(-c2ccc3c(c2)CCC(=O)N3C)c1 [Example 77] , system: human CYP11B2 (Homo sapiens). Its log10 EC50 is 1.62

Sample CCS(=O)(=O)NCc1cncc(-c2cc3c(cc2F)N(C)C(=O)CC3)c1 [Example 16] , system: human CYP11B2 (Homo sapiens). Its log10 EC50 is 1.04

Sample CN1C(=O)CCc2cc(-c3cncc(N4CCC[C@H]4Cn4cncn4)c3)ccc21 [Example 11] , system: human CYP11B2 (Homo sapiens). Its log10 EC50 is 1.88

Sample Cc1nc(C(=O)NCc2cncc(-c3ccc4c(c3)CCC(=O)N4C)c2)c(C(F)(F)F)o1 [Example 108] , system: human CYP11B2 (Homo sapiens). Its log10 EC50 is 1.51
